Test system: Leishmania donovani
Experiment: Antileishmanial activity against Leishmania donovani MHOM/IN/95/9515 promastigotes assessed as inhibition of parasite growth incubated for 48 hrs by resazurin staining based analysis
Type: functional, organism-based
Settings: MHOM/IN/95/9515, 48 h
# reported pIC50; entries follow
Please treat pIC50 as minus the base-10 logarithm of the molar concentration.

Reference set, count: 2
O=[N+]([O-])c1ccc(/C=N/N=C/c2ccc(F)cc2)s1 ... 5.70
O=[N+]([O-])c1ccc(/C=N/N=C/c2ccccc2)s1 ... 6.03

Problem: Fill in the blank: the reported pIC50 of O=[N+]([O-])c1ccc(/C=N/N=C/c2ccc(Cl)cc2)o1 is ____.
Result: 6.17

The reported measurements were obtained from ChEMBL document CHEMBL5329184.
